Listed here: compounds with reported MIC for Streptococcus uberis.
PROPERTY: MIC

STRUCTURE	PROPERTY	TEST_RESULT
CC[C@H](C)[C@H](NC(=O)[C@@H](NC(=O)CN)C(C)C)C(=O)N[C@@H](CC(=O)O)C(=O)N[C@@H](C)C(=O)N[C@@H](C)C(=O)N[C@@H](CCCCN)C(=O)N[C@@H](CCCCN)C(=O)N[C@@H](Cc1c[nH]c2ccccc12)C(=O)N[C@@H](CC(N)=O)C(=O)N[C@H](C(=O)N[C@@H](CC(C)C)C(=O)N[C@@H](CCCCN)C(=O)N[C@@H](CC(N)=O)C(=O)N[C@@H](CC(C)C)C(=O)N[C@@H](Cc1ccccc1)C(N)=O)C(C)C	MIC	6.56 µM
CC[C@H](C)[C@H](NC(=O)[C@@H](NC(=O)[C@H](CCCCN)NC(=O)[C@H](C)NC(=O)[C@@H](NC(=O)[C@H](CCCCN)NC(=O)[C@H](CCCCN)NC(=O)[C@@H](NC(=O)[C@@H](NC(=O)[C@H](CCCCN)NC(=O)[C@H](Cc1ccccc1)NC(=O)[C@H](CC(C)C)NC(=O)CN)C(C)C)[C@@H](C)CC)C(C)C)C(C)C)C(=O)N[C@@H](CCCCN)C(=O)N[C@@H](CCCCN)C(=O)N[C@@H](CC(C)C)C(N)=O	MIC	27.6 µM
CC[C@H](C)[C@H](NC(=O)[C@@H](NC(=O)CN)C(C)C)C(=O)N[C@@H](CC(=O)O)C(=O)N[C@@H](C)C(=O)N[C@@H](C)C(=O)N[C@@H](CCCCN)C(=O)N[C@@H](CCCCN)C(=O)N[C@H](C(=O)N[C@H](C(=O)N[C@@H](CC(N)=O)C(=O)N[C@H](C(=O)N[C@@H](CC(C)C)C(=O)N[C@@H](C)C(=O)N[C@@H](CC(N)=O)C(=O)N[C@@H](CC(C)C)C(=O)N[C@@H](Cc1ccccc1)C(N)=O)C(C)C)C(C)C)C(C)C	MIC	28.2 µM
CC[C@H](C)[C@H](NC(=O)[C@H](CC(C)C)NC(=O)[C@H](CC(=O)O)NC(=O)CNC(=O)[C@@H](NC(=O)CN)C(C)C)C(=O)N[C@@H](CCCN=C(N)N)C(=O)N[C@@H](CCCCN)C(=O)N[C@@H](C)C(=O)N[C@H](C(=O)N[C@@H](CO)C(=O)N[C@H](C(=O)N[C@H](C(=O)N[C@@H](CCCCN)C(=O)N[C@@H](CC(N)=O)C(=O)N[C@H](C(=O)N[C@H](C(N)=O)C(C)C)[C@@H](C)CC)[C@@H](C)CC)C(C)C)C(C)C	MIC	7.02 µM

----------
Listed here: molecules with reported MIC for Bacillus subtilis 168.
PROPERTY: MIC (µM)

MOLECULE	TEST_RESULT
CC[C@H](C)[C@H](NC(=O)[C@H](Cc1cnc[nH]1)NC(=O)[C@H](CCCCN)NC(=O)[C@H](CC(C)C)NC(=O)[C@H](CC(C)C)NC(=O)[C@H](CO)NC(=O)[C@H](CCSC)NC(=O)[C@H](Cc1c[nH]c2ccccc12)NC(=O)[C@H](CCCCN)NC(=O)[C@@H](N)Cc1cnc[nH]1)C(=O)N[C@@H](CC(C)C)C(=O)N[C@@H](CCCCN)C(N)=O [HKWMSLLKHILK]	1.5
CC[C@H](C)[C@H](NC(=O)CN)C(=O)N[C@@H](CC(C)C)C(=O)N[C@@H](CO)C(=O)N[C@@H](CO)C(=O)N[C@@H](CC(C)C)C(=O)N[C@@H](CC(C)C)C(=O)N[C@@H](CCCCN)C(=O)N[C@@H](CCCCN)C(=O)N[C@@H](CC(C)C)C(=O)N[C@@H](CCCCN)C(=O)N[C@@H](CCCCN)C(=O)N[C@@H](Cc1c[nH]c2ccccc12)C(=O)N[C@H](C(=O)N[C@@H](C)C(=O)N[C@@H](CCCCN)C(N)=O)[C@@H](C)CC [GILSSLLKKLKKWIAK]	7
CC[C@H](C)[C@H](NC(=O)CN)C(=O)N[C@@H](CC(C)C)C(=O)N[C@@H](CO)C(=O)N[C@@H](CCCCN)C(=O)N[C@@H](CC(C)C)C(=O)N[C@@H](CC(C)C)C(=O)N[C@@H](CCCCN)C(=O)N[C@@H](CCCCN)C(=O)N[C@@H](CC(C)C)C(=O)N[C@@H](CCCCN)C(=O)N[C@@H](CCCCN)C(=O)N[C@H](C(=O)N[C@H](C(=O)N[C@@H](C)C(=O)N[C@@H](CCCCN)C(N)=O)[C@@H](C)CC)[C@@H](C)CC [GILSKLLKKLKKIIAK]	7
